Data origin: patent US20020137929A1

# System: SETVI (Foxtail, Green)
# PROCEDURE_DETAILS: Preemergence herbicidal evaluation
# Type: in vivo, Setaria viridis
# TEST_CONTEXT: rate 0.0313 kg/ha; rated 4-5 weeks after treatment
QUANTITY_KIND: Preemergence herbicidal rating SETVI
I'd appreciate a reply containing only the number, no unit.

// Preemergence herbicidal rating SETVI value for CCOC(=O)CN1C(=O)C(CC(=O)OC)S/C1=N/c1cc(-n2c(=O)cc(C(F)(F)F)n(C)c2=O)c(F)cc1Cl (stereo not drawn) : 2.0

// Preemergence herbicidal rating SETVI value for C[C@H](C(=O)O)N1C(=O)CSC1=Nc1cc(-n2c(=O)cc(C(F)(F)F)n(C)c2=O)c(F)cc1Cl : 0.0

// Preemergence herbicidal rating SETVI value for CC(C)OC(=O)CN1C(=O)CSC1=Nc1cc(-n2c(=O)cc(C(F)(F)F)n(C)c2=O)c(F)cc1Cl : 2.5

// Preemergence herbicidal rating SETVI value for C[C@@H](C(=O)O)N1C(=O)CS/C1=N/c1cc(-n2c(=O)cc(C(F)(F)F)n(C)c2=O)c(F)cc1Cl : 0.0

// Preemergence herbicidal rating SETVI value for CN1C(=O)C(CC(=O)O)SC1=Nc1cc(-n2c(=O)cc(C(F)(F)F)n(C)c2=O)c(F)cc1Cl (stereo not drawn) : 0.0

// Preemergence herbicidal rating SETVI value for CCOC(=O)CN1C(=O)C(CC(=O)O)SC1=Nc1cc(-n2c(=O)cc(C(F)(F)F)n(C)c2=O)c(Cl)cc1Cl (stereo not drawn) : 0.0

// Preemergence herbicidal rating SETVI value for CC(C)COC(=O)CN1C(=O)CSC1=Nc1cc(-n2c(=O)cc(C(F)(F)F)n(C)c2=O)c(F)cc1Cl : 3.0

// Preemergence herbicidal rating SETVI value for C[C@@H](C(=O)OC(C)(C)C)N1C(=O)CSC1=Nc1cc(-n2c(=O)cc(C(F)(F)F)n(C)c2=O)c(F)cc1Cl : 0.0

// Preemergence herbicidal rating SETVI value for CCOC(=O)CN1C(=O)C(C(=O)OC)SC1=Nc1cc(-n2c(=O)cc(C(F)(F)F)n(C)c2=O)c(F)cc1Cl (stereo not drawn) : 1.0
